# targetOfAssay: NADPH oxidase 5 (Homo sapiens) (UniProt Q96PH1)
# Sequence (Q96PH1 whole entry, looked up): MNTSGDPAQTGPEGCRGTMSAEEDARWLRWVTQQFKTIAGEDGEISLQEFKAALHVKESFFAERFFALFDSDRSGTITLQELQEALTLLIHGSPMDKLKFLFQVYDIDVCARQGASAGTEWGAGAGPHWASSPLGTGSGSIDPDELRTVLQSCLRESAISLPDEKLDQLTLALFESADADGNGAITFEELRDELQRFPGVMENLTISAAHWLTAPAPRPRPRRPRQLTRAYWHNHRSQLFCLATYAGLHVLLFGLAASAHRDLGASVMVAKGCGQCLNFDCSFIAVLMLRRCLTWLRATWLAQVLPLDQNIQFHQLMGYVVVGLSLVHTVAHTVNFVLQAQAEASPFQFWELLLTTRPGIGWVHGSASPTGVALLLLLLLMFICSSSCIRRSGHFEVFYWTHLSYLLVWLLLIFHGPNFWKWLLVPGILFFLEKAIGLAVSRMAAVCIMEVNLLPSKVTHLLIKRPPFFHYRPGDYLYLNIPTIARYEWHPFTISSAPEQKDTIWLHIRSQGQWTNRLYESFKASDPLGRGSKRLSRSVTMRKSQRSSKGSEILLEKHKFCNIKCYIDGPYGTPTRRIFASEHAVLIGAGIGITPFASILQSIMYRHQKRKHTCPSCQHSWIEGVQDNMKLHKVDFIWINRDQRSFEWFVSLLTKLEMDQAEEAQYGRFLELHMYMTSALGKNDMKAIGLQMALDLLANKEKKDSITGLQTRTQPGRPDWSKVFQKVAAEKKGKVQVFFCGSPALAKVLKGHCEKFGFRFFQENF
# assayProtocol: NOX5-dependent H2O2 signal modulators, primary screen, NOX inhibitor project, cell-based, HEK293-NOX5, Amplex Red fluorescence (AID 1161)
# measurementConditions: HEK293-NOX5, ionomycin, 45 min, higher = more signal
measurementName: z-score
Write the number on its own, no unit after it.

Looking up `COc1ccc(-c2cc3c(c(-c4ccccc4)n2)[Si](C(C)C)(C(C)C)O[C@H]3c2ccccc2)cn1` , I found its z-score recorded as 0.929

The compound listed as O=C(NCC(O)CO)[C@]1(Cc2ccccc2)N=C(c2ccc(OCCCO)cc2)O[C@@H]1c1ccccc1 (stereo not given in full) has a reported z-score of 1.7

Lab note: measured z-score of C=CCC(OC(C)=O)[C@@H]1[C@@H](N(Cc2cccc3ccccc23)C(=O)Cc2ccc(F)cc2)c2cc(OCCCO)ccc2N1C(=O)Cc1ccc2ccccc2c1 (stereo not given in full) was 0.765

Entry `CCCC[C@@H]1C[C@H]1[C@@H](NC(=O)c1ccccc1)c1ccccc1C(F)(F)F` , z-score reported as 0.262

The reported z-score of the compound `COCCCNC(=O)[C@@]1(c2ccc([N+](=O)[O-])cc2)CC(=O)N(C2CCCCC2)[C@@H]1c1ccc(CO)cc1` was 0.537

Looking up `COC(=O)[C@@]1(Cc2ccccc2CN=[N+]=[N-])N=C(c2ccc(OCCCO)cc2)O[C@H]1c1ccccc1N=[N+]=[N-]` , I found its z-score recorded as 0.841

Measured z-score of `C=C(CCCC)C(=O)CC[C@@H](OC(C)=O)c1ccccc1OCCO` : -1.68

The compound identified as O=C1OCC=C[C@H]2OC34C=CCN(Cc5ccccc5)C(=O)[C@H]3N(CCO)C(=O)[C@@H]4[C@@H]12 (stereo not given in full) registered its z-score at 1.75

What the record says about `COCCOC(=O)N1C(=O)[C@@]2(c3cc(C#CCNC(N)=O)ccc31)[C@H](C(=O)N1CCCCCCC1)[C@H]1C(=O)O[C@H](c3ccccc3)[C@H](c3ccccc3)N1[C@@H]2c1ccccc1OCCO` : z-score is 0.357

The compound identified as O=C1NC(=O)C2C1C=CC(C(O)C=Cc1ccc([N+](=O)[O-])cc1)N2Nc1ccccn1 (stereo not given) registered its z-score at -1.52

Note to self: z-score recorded for `CC(C)(C)OC(=O)CC[C@]1(C(=O)NCCN2CCOCC2)N=C(c2ccc(OCCCO)cc2)O[C@H]1c1ccccc1CN=[N+]=[N-]` was 0.699

Measured z-score, `C=C(CCCC)/C(=C/C[C@@H](OC(=O)c1ccncc1)c1cccc(OCCO)c1)c1cc(C(=O)OC)ccc1OC` : -0.975

Lab note: `COCCOC(=O)N1C(=O)[C@@]2(c3cc(C#CCNC(N)=O)ccc31)[C@H](c1ccc(OCCO)cc1)N1[C@H](c3ccccc3)[C@H](c3ccccc3)OC(=O)[C@H]1[C@@H]2C(=O)N1CCCCCCC1` gave z-score of 0.765

For this compound ( `O=C/C=C/c1ccccc1Cl` ), measured z-score is 1.38

Record `COCCOC(=O)N1C(=O)[C@@]2(c3cc(C#CC4=CCCCC4)ccc31)[C@H](c1ccc(O)cc1)N1[C@H](c3ccccc3)[C@H](c3ccccc3)OC(=O)[C@H]1[C@@H]2C(=O)N1CCCCCCC1` . Reported z-score: 1.53
